The origin of these recorded values is the supplement of paper PMC10567573.

B1: FBXO3 (parent)
chain: HDPLWRRHCKKYWLISEEEKTQKN

variants of: B1; assay: protein stability index of a GFP-peptide fusion (GPS, HEK-293T) (PSI 1-6); higher = more stable; conditions: c terminus: a fixed tail appended;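 also: lentivirally expressed fusions sorted by FACS into six bins by GFP to DsRed ratio, PSI derived from sequencing read proportions per bin multiplied by bin number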
Listed next: entries and their corresponding protein stability index.
PROPERTY_LABEL: protein stability index

# MUTATION_ID, ASSAY_VALUE
measured = [
    ("E18C", 2.95),
    ("K23Y", 2.91),
    ("C9Y", 3.31),
    ("Y12P", 3.78),
    ("N24I", 2.48),
    ("K10Q", 3.28),
    ("W13S", 3.97),
    ("K11V", 2.28),
    ("C9P", 4.15),
    ("L14K", 3.53),
    ("S16P", 3.77),
    ("I15F", 3.38),
    ("N24R", 3.22),
    ("N24L", 2.81),
    ("C9F", 2.65),
    ("I15D", 3.69),
    ("P3A", 3.58),
    ("R6F", 2.84),
    ("N24Q", 3.43),
    ("K10R", 3.06),
    ("W13I", 3.91),
    ("K10P", 4.06),
    ("K23D", 3.95),
    ("K20H", 2.95),
    ("W13G", 4.26),
    ("K23G", 3.65),
    ("E17V", 2.23),
]
